Hey, just so you know, these numbers are from patent US11273168B2.

- targetUnderTest: Serotonin (5-HT) uptake (Rattus norvegicus)
- Construct: The suspension was used as a crude synaptosome fraction; from tissue; host or cells: rat (male Wistar) frontal cortex, crude synaptosome fraction
- Sequence (P31652 whole entry): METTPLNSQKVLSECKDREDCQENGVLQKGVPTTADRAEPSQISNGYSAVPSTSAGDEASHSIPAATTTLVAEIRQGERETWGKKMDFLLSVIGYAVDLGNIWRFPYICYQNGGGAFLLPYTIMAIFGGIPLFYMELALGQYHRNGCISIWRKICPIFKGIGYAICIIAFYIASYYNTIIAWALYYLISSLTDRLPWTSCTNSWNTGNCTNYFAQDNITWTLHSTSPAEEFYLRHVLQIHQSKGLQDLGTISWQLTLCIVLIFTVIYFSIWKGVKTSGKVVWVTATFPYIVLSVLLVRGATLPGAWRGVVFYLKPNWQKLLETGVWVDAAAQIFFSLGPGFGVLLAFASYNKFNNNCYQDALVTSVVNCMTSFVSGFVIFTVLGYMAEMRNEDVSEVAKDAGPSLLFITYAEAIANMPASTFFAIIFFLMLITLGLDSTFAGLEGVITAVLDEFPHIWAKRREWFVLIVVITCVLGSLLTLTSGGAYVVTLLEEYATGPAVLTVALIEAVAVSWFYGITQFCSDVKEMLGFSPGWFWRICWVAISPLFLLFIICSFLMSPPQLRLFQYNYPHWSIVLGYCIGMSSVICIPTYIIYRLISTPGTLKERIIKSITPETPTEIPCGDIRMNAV
- protocolNotes: Serotonin (5-HT) uptake inhibitory activity using rat brain synaptosome (frontal cortex)
- Type: biochemical
- assayConditions: tritium-labeled 5-HT 8 nM, 37° C. 10 minutes, read-out: 50% Inhibitory concentration
Listed compounds paired with reported IC50
assayEndpoint: IC50 (nM)

{"columns": ["compound", "measurementUnit", "measured"],
 "data": [
  ["CC1(C)CN(c2cccc3ccccc23)[C@H]2CCCC[C@H]2N1 [Example 118]", "nM", 13.7],
  ["CC1(C)CN(c2ccccc2Cl)[C@H]2CCCC[C@H]2N1 [Example 165]", "nM", 12],
  ["Clc1ccc(N2CC3(CCC3)N[C@H]3CCCC[C@H]32)cc1 [Example 276]", "nM", 7.2]
]}

----------
Listed compounds paired with reported pIC50
- targetUnderTest: Serotonin (5-HT) uptake (Rattus norvegicus)
- Construct: The suspension was used as a crude synaptosome fraction; from tissue; host or cells: rat (male Wistar) frontal cortex, crude synaptosome fraction
- protocolNotes: Serotonin (5-HT) uptake inhibitory activity using rat brain synaptosome (frontal cortex)
- Format: biochemical
- assayConditions: tritium-labeled 5-HT 8 nM, 37° C. 10 minutes, read-out: 50% Inhibitory concentration
pIC50: −log10 of the molar value.

{"columns": ["compound", "targetUnderTest", "pIC50"],
 "data": [
  ["CC1(C)CN(c2ccc3sccc3c2)[C@@H]2CCCCC[C@@H]2N1 (racemic)", "Serotonin (5-HT) uptake (Rattus norvegicus)", 8.17],
  ["C[C@@H]1CN(c2ccc3ncsc3c2)[C@H]2CCCC[C@@H]2N1", "Serotonin (5-HT) uptake (Rattus norvegicus)", 7.42],
  ["C[C@@H]1CN(c2cccc3ccsc23)[C@@H]2CCCC[C@@H]2N1 (relative stereo)", "Serotonin (5-HT) uptake (Rattus norvegicus)", 8.27]
]}

----------
- targetUnderTest: Dopamine (DA) uptake (Rattus norvegicus)
- Construct: The suspension was used as a crude synaptosome fraction
- Sequence (P23977 whole entry): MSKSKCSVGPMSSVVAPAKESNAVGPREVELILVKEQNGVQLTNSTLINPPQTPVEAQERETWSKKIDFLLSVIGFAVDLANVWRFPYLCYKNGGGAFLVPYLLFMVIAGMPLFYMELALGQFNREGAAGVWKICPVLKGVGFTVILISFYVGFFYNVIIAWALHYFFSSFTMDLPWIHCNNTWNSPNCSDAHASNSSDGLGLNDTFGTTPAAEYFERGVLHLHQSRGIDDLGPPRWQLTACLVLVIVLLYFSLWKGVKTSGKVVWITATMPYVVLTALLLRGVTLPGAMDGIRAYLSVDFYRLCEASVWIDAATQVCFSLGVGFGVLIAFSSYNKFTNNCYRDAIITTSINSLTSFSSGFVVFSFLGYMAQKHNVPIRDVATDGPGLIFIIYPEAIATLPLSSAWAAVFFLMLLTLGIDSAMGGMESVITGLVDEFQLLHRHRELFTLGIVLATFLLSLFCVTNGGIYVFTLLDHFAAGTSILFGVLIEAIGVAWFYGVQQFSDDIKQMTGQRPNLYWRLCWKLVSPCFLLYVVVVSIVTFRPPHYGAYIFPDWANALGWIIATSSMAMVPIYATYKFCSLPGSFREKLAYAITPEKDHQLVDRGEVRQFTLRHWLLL
- protocolNotes: Dopamine (DA) uptake inhibitory activity using rat brain synaptosome (corpus striatum)
- assayConditions: tritium-labeled DA 2 nM, 37° C. ten minutes, read-out: 50% Inhibitory concentration
pIC50: −log10 of the molar value. Where a name gives a salt, the structure may show the parent alone.
Listed compounds paired with reported pIC50
assayEndpoint: pIC50

{"columns": ["compound", "assayEndpoint", "measured"],
 "data": [
  ["c1cc(N2CC3(CCC3)N[C@H]3CCCC[C@@H]32)c2ccoc2c1", "pIC50", 8.96],
  ["CC1(C)CN(c2cccc3occc23)[C@H]2CCCC[C@H]2N1", "pIC50", 8.08],
  ["CC1(C)CN(c2ccc(O)cc2)[C@H]2CCCC[C@H]2N1", "pIC50", 7.08],
  ["CC1(C)CN(c2ccc3sccc3c2)[C@H]2CCCC[C@@H]2N1", "pIC50", 7.53],
  ["CN1[C@@H]2CCCC[C@H]2N(c2ccc(Cl)c(Cl)c2)CC1(C)C", "pIC50", 8.06],
  ["C[C@@H]1CN(c2ccc3sccc3c2)[C@H]2CCCC[C@@H]2N1 [Example 1121]", "pIC50", 7.52],
  ["CC1(C)CN(c2ccc3sccc3c2)[C@H]2CCC[C@@H]2N1 (relative stereo)", "pIC50", 7.07],
  ["CC1(C)CN(c2ccc(F)c3ccccc23)[C@H]2CCCC[C@@H]2N1 (relative stereo)", "pIC50", 6.78],
  ["CC1(C)CN(c2cccc3ncccc23)[C@H]2CCCC[C@H]2N1", "pIC50", 6.73],
  ["CC1(C)CN(c2ccc(O)c(Cl)c2)[C@H]2CCCC[C@@H]2N1", "pIC50", 7.38],
  ["CC1(C)CN(c2ccc3sccc3c2)[C@H]2CCCCC[C@@H]2N1 (relative stereo)", "pIC50", 7.56],
  ["CC1(C)CN(c2ccc(Cl)c(Cl)c2)[C@@H]2CCCCC[C@@H]2N1 (relative stereo)", "pIC50", 8.11],
  ["CC1(C)CN(c2cccc3sccc23)[C@@H]2CCCC[C@@H]2N1 (relative stereo)", "pIC50", 7.50],
  ["CC1(C)CN(c2ccc3[nH]c(C#N)cc3c2)[C@@H]2CCCC[C@H]2N1", "pIC50", 7.41],
  ["Cn1c(C#N)cc2cc(N3CC(C)(C)N[C@@H]4CCCC[C@@H]43)ccc21", "pIC50", 6.70],
  ["CC1(C)CN(c2cccc3sccc23)[C@H]2CCCC[C@H]2N1", "pIC50", 8.04],
  ["CC1(C)CN(c2ccc(F)c(Cl)c2)[C@@H]2CCCC[C@@H]2N1 [Example 112, hydrochloride]", "pIC50", 6.58],
  ["CC1(C)CN(c2ccc(F)c3occc23)[C@H]2CCCC[C@H]2N1", "pIC50", 8.11]
]}
